ASSAY_PROCEDURE: Common metabolites in rat plasma by GC-MS/MS after polyI:C and/or maoto
Assay type: in vivo
ASSAY_CONDITIONS: M/C (maoto vs control), 1h
MEASURED_QUANTITY: log2FC of plasma level

O=C(O)Cc1cc(O)ccc1O = 0.60
O=C[C@H](O)[C@H](O)[C@H](O)CO = 0.41
NCC(=O)O = -0.06
NC(N)=O = 0.05
O=C(CO)C(O)C(O)CO (centres unmarked) = 0.30

###

Each entry below carries its recorded log2FC of plasma level.
Format: in vivo, rat
ASSAY_CONDITIONS: PM/P (polyI:C+maoto vs polyI:C), 4h
MEASURED_QUANTITY: log2FC of plasma level

O=C(O)CCC/C=C\C/C=C\C/C=C\C/C=C\CCCCCO [20-HETE] = 0.06
CC/C=C\CC(O)/C=C/C=C\CCCCCCCC(=O)O (stereo not drawn) [13-HOTrE] = -0.60
CCCCCC(=O)CCC1C(O)CC(=O)C1CCC(=O)O (stereo not drawn) [13,14-dihydro-15-keto-tetranor-PGE2] = -2.03
CCCCC/C=C\C/C=C\C=C\C(O)C/C=C\CCCC(=O)O (stereo not drawn) [8-HETE] = -0.62
CC/C=C\C/C=C\C/C=C\C/C=C\C/C=C\C/C=C\CCC(=O)O [DHA, docosahexaenoic acid] = 0.03
CC/C=C\CC(O)C(O)C/C=C\C/C=C\C/C=C\CCCC(=O)O (stereo not drawn) [14,15-DiHETE] = -0.17
CCCCCC(O)/C=C/C=C\CCCCCCCCCC(=O)O (stereo not drawn) [15-HEDE] = -1.18
CC/C=C\C=C\C(O)C/C=C\C/C=C\C/C=C\C/C=C\CCC(=O)O (stereo not drawn) [16-HDoHE] = -0.76
CCCCCC(O)/C=C/C=C\CCCCCCCC(=O)O (stereo not drawn) [13-HODE] = -0.80
CCCCC[C@H](O)/C=C/[C@H]1OC(O)C[C@H](O)[C@@H]1C/C=C\CCCC(=O)O (stereo partly drawn) [TXB2] = -0.46
CCC(O)CC/C=C\C/C=C\C/C=C\C/C=C\CCCC(=O)O (stereo not drawn) [18-HETE] = -0.07
CCCCC[C@H](O)/C=C/[C@H]1C(=O)C[C@H](O)[C@@H]1C/C=C\CCCC(=O)O [PGD2] = -1.25
CCCCCC(O)C(O)C/C=C\CCCCCCCC(=O)O (stereo not drawn) [12,13-DiHOME] = -0.28
CCCCC/C=C\CC(O)C(O)CCCCCCCC(=O)O (stereo not drawn) [9,10-DiHOME] = -0.10
CCCCC/C=C/C=C/C(=O)CCCCCCCC(=O)O [9-KODE] = -1.16
CC/C=C\C/C=C\CC(O)/C=C/C=C\C/C=C\CCCC(=O)O (stereo not drawn) [12-HEPE] = -0.27
CC/C=C\CC(O)/C=C/C=C\C/C=C\C/C=C\CCCC(=O)O (stereo not drawn) [15-HEPE] = -0.55
CCCCC[C@H](O)/C=C/C=C\C/C=C\C/C=C\CCCC(=O)O [15-HETE] = -0.78
